Provenance of the data: the supplement of paper PMC11061612

- System: MONO-MAC-6 (Acute Myeloid Leukemia)
- Procedure Text: combination Emax (second highest fraction inhibited in the dose matrix, 72 h); higher = more inhibition; extreme values may be limits of the assay
Task for the reader: assign each of the following molecules its reported combination Emax.
Numbers only.

Illustrative cases are given below, each with its answer.
* Cc1c2c(nn1C)CSCc1cc(n(C)n1)CSc1cc(c3ccccc3c1)OCCCc1c(C(=O)O)n(C)c3c-2c(Cl)ccc13 [AZD5991] + CC(=O)O[C@H]1C(=O)[C@@]2(C)[C@H]([C@H](OC(=O)c3ccccc3)[C@]3(O)C[C@H](OC(=O)[C@H](O)[C@@H](NC(=O)c4ccccc4)c4ccccc4)C(C)=C1C3(C)C)[C@]1(OC(C)=O)CO[C@@H]1C[C@@H]2O [Paclitaxel] (first compound max 1 µM, 7x7, partner max 3 µM) | 1
* NC1(C(=O)N[C@@H](CCO)c2ccc(Cl)cc2)CCN(c2ncnc3[nH]ccc23)CC1 [Capivasertib] + COc1nnc2ccc(N3CCC(c4ccc(OCCN5CCN(C)C(=O)[C@H]5C)cc4)CC3)nn12 [AZD5153] (first compound max 10 µM, 7x7, partner max 1 µM) | 1

Batch: combination Emax for all items listed.
1. COc1cccc(OCCCN)c1-c1cc(Nc2cnc(C#N)cn2)n[nH]1 [Prexasertib] + CN(C)CCCOc1ccc(-c2ccc3ncc4c(c3c2)n(C2CCOCC2)c(=O)n4C)cn1 [AZD0156] (first compound max 1 µM, 7x7, partner max 1 µM)
2. Cc1c2c(nn1C)CSCc1cc(n(C)n1)CSc1cc(c3ccccc3c1)OCCCc1c(C(=O)O)n(C)c3c-2c(Cl)ccc13 [AZD5991] + CN(C)CCCOc1ccc(-c2ccc3ncc4c(c3c2)n(C2CCOCC2)c(=O)n4C)cn1 [AZD0156] (first compound max 1 µM, 7x7, partner max 1 µM)
3. Cc1c2c(nn1C)CSCc1cc(n(C)n1)CSc1cc(c3ccccc3c1)OCCCc1c(C(=O)O)n(C)c3c-2c(Cl)ccc13 [AZD5991] + CCN(CCO)CCCOc1ccc2c(Nc3cc(CC(=O)Nc4cccc(F)c4)[nH]n3)ncnc2c1 [AZD2811] (first compound max 1 µM, 7x7, partner max 1 µM)
4. COc1nnc2ccc(N3CCC(c4ccc(OCCN5CCN(C)C(=O)[C@H]5C)cc4)CC3)nn12 [AZD5153] + CC1(C)CCC(CN2CCN(c3ccc(C(=O)NS(=O)(=O)c4ccc(NCC5CCOCC5)c([N+](=O)[O-])c4)c(Oc4cnc5[nH]ccc5c4)c3)CC2)=C(c2ccc(Cl)cc2)C1 [Venetoclax] (first compound max 1 µM, 7x7, partner max 1 µM)
5. CN(CCO)CC[C@H](CSc1ccccc1)Nc1ccc(S(=O)(=O)NC(=O)c2ccc(N3CCC([C@@H](O)c4ccccc4-c4ccc(Cl)cc4)CC3)cc2)cc1S(=O)(=O)C(F)(F)F [AZD4320] + Cc1cc2ncnn2cc1Nc1ncc2c(n1)n(C1CCOCC1)c(=O)n2C [AZD7648] (first compound max 1 µM, 7x7, partner max 10 µM)
6. COc1cccc(OCCCN)c1-c1cc(Nc2cnc(C#N)cn2)n[nH]1 [Prexasertib] + O=C(c1cc(Cc2n[nH]c(=O)c3ccccc23)ccc1F)N1CCN(C(=O)C2CC2)CC1 [Olaparib] (first compound max 1 µM, 7x7, partner max 10 µM)
7. CN(C)CCCOc1ccc(-c2ccc3ncc4c(c3c2)n(C2CCOCC2)c(=O)n4C)cn1 [AZD0156] + C[C@@H]1COCCN1C2=NC(=NC(=C2)C3(CC3)[S@](=N)(=O)C)C4=C5C=CNC5=NC=C4 [AZD6738] (first compound max 1 µM, 7x7, partner max 10 µM)

output:
1: 0.963; 2: 1; 3: 1; 4: 0.989; 5: 0.393; 6: 0.976; 7: 0.858
